Molecular target: T1, Aβ1-40 peptide
T1 construct: synthetic peptide, not biotinylated; also called 1-40 (WT); beta amyloid 1-40
T1 sequence (peptide, as listed by the source): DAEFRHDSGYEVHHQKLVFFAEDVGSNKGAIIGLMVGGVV
Test: ELISA, nonbiotinylated peptide on plate; also: test concentration or dose not given here
Provide the recorded A450 ELISA for the entries that follow.
Enter the number, and then the unit.

Request: Param item = 6G light chain variant 6D (E97T) (antibody, V domains shown) VH: QVQLVQSGAEVKKPGASVKVSCKASGYTFTTYAIHWVRQAPGQGLEWMGFTSPYSGVSNYNQKFKGRVTMTRDTSTSTVYMELSSLRSEDTAVYYCARFDNYDRGYVRDYWGQGTLVTVS VL: DIVMTQSPDSLAVSLGERATINCRASESVDNDRISFLNWYQQKPGQPPKLLIYAATKQGTGVPDRFSGSGSGTDFTLTISSLQAEDVAVYYCQQSKTFPWSFGGGTKVEIKR ; retrieve measured A450 ELISA.
Result: 2.41 A450

Request: Param item = 6G light chain variant 3A (Q93P) (antibody, V domains shown) VH: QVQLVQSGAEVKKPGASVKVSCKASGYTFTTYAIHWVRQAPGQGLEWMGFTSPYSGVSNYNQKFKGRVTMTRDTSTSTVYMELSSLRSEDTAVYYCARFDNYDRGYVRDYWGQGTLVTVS VL: DIVMTQSPDSLAVSLGERATINCRASESVDNDRISFLNWYQQKPGQPPKLLIYAATKQGTGVPDRFSGSGSGTDFTLTISSLQAEDVAVYYCPQSKEFPWSFGGGTKVEIKR ; retrieve measured A450 ELISA.
Result: 0.08 A450

Request: Param item = 6G light chain variant 6E (E97P) (antibody, V domains shown) VH: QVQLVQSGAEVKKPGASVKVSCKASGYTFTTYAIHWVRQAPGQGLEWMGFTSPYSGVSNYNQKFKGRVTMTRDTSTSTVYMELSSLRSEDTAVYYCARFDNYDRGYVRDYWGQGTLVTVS VL: DIVMTQSPDSLAVSLGERATINCRASESVDNDRISFLNWYQQKPGQPPKLLIYAATKQGTGVPDRFSGSGSGTDFTLTISSLQAEDVAVYYCQQSKPFPWSFGGGTKVEIKR ; retrieve measured A450 ELISA.
Result: 0.12 A450

Request: Param item = 6G light chain variant 8G (E97V) (antibody, V domains shown) VH: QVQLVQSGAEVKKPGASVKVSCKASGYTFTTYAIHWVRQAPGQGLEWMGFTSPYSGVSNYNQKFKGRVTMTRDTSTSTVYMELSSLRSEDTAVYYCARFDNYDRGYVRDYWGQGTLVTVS VL: DIVMTQSPDSLAVSLGERATINCRASESVDNDRISFLNWYQQKPGQPPKLLIYAATKQGTGVPDRFSGSGSGTDFTLTISSLQAEDVAVYYCQQSKVFPWSFGGGTKVEIKR ; retrieve measured A450 ELISA.
Result: 2.6 A450

Request: Param item = 6G heavy chain variant 10G (Y102I) (antibody, V domains shown) VH: QVQLVQSGAEVKKPGASVKVSCKASGYTFTTYAIHWVRQAPGQGLEWMGFTSPYSGVSNYNQKFKGRVTMTRDTSTSTVYMELSSLRSEDTAVYYCARFDNIDRGYVRDYWGQGTLVTVS VL: DIVMTQSPDSLAVSLGERATINCRASESVDNDRISFLNWYQQKPGQPPKLLIYAATKQGTGVPDRFSGSGSGTDFTLTISSLQAEDVAVYYCQQSKEFPWSFGGGTKVEIKR ; retrieve measured A450 ELISA.
Result: 0.63 A450
